- tested_system: UniProtKB P35228
- Sequence (P35228 whole entry): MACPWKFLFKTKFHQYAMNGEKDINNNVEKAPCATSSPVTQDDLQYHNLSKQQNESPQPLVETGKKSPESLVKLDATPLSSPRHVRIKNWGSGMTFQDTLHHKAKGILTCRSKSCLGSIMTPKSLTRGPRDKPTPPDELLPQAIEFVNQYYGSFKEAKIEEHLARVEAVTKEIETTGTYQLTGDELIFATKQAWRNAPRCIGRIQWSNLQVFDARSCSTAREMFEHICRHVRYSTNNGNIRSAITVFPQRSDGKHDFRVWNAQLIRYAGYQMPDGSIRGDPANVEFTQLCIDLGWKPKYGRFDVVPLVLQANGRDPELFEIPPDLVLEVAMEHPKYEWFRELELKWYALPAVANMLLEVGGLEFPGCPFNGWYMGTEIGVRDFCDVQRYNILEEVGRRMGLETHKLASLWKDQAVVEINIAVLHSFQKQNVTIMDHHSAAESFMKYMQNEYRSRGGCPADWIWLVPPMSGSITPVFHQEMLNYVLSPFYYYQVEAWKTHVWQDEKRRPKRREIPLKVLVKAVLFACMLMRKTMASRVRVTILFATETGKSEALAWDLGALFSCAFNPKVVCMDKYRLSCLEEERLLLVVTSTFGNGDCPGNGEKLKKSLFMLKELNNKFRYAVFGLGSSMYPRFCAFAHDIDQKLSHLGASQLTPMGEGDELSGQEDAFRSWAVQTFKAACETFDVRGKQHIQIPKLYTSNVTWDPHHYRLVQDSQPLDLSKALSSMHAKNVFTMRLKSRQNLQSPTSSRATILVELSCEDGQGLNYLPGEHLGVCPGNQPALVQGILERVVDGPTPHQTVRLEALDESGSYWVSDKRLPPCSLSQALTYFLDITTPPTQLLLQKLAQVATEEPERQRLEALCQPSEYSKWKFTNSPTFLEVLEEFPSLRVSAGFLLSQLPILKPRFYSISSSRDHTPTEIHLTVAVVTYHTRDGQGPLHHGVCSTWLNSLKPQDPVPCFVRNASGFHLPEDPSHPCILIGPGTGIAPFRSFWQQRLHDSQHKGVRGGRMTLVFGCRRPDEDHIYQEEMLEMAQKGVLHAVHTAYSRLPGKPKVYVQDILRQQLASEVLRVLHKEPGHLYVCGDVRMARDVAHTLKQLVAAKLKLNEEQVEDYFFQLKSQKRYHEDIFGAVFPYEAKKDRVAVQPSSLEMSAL
measurement_type: Ki (nM)
Provide only the numeric value, understood in nM.

For C[C@H]1CC(=N)N[C@@H]2[C@H](Cl)[C@@H]21 , what is its reported Ki?
1.8

----------
- assay_info: Cytotoxicity against CD-1 mouse peritoneal macrophages assessed as survival rate at 1 uM after 48 hrs by SRB assay
- Assay type: cell-based, Peritoneal macrophage cell
- assay_setup: read-out: Activity
measurement_type: viability at 48 h, 1 µM

For C[C@H]1CC(=N)N[C@@H]2[C@H](Cl)[C@@H]21 , what is its reported viability at 48 h, 1 µM?
93.6%

----------
- tested_system: Nitric oxide synthase, inducible (Mus musculus, UniProt P29477)
- Sequence (P29477 whole entry): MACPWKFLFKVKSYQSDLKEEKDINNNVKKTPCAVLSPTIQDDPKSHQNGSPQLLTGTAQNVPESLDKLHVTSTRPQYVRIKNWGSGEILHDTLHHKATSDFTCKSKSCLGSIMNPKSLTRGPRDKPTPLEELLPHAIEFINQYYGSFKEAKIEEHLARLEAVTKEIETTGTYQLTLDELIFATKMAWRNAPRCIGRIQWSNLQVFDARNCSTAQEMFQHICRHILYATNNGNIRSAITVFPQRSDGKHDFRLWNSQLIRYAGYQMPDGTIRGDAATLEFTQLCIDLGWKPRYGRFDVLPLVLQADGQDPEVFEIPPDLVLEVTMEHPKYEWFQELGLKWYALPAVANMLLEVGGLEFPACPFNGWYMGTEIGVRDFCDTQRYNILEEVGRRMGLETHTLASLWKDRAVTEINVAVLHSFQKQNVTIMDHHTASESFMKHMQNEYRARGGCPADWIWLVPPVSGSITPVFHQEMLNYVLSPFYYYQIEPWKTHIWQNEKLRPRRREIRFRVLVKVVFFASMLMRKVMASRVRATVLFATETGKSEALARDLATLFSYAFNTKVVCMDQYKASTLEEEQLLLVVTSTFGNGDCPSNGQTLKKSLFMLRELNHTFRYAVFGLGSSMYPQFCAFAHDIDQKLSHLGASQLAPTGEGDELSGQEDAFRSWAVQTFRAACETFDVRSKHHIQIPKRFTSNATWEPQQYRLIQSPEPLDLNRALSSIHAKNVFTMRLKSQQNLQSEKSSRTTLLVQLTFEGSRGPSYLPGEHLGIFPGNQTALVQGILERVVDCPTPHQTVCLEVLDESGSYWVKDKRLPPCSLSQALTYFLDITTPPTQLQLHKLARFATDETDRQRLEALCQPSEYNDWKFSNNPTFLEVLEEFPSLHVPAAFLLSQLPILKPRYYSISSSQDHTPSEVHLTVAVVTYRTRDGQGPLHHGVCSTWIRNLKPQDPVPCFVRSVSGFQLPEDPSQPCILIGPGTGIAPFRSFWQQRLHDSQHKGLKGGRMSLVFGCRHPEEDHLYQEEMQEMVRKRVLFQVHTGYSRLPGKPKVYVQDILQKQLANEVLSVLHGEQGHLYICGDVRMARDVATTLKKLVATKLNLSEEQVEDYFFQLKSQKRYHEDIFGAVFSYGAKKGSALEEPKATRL
- assay_info: Inhibition of mouse recombinant iNOS activity assessed as conversion of [14C]-L-arginine to [14C]-L-citrulline by liquid scintillation counting
measurement_type: IC50 (nM)
Provide only the numeric value, understood in nM.

For C[C@H]1CC(=N)N[C@@H]2[C@H](Cl)[C@@H]21 , what is its reported IC50?
11

----------
- assay_info: Cytotoxicity against CD-1 mouse peritoneal macrophages assessed as survival rate at 10 uM after 48 hrs by SRB assay
- Format: cell-based, Peritoneal macrophage cell
- assay_setup: read-out: Activity
measurement_type: viability at 48 h, 10 µM (%)
Provide only the numeric value, understood in %.

For C[C@H]1CC(=N)N[C@@H]2[C@H](Cl)[C@@H]21 , what is its reported viability at 48 h, 10 µM?
99.1
